# method summary: Half life in female Sprague-Dawley rat at 5 mg/kg, po measured for 36 hrs by LC-MS/MS analysis
# Assay type: ADME, organism-based
# applied conditions: in vivo
measurement label: half-life (h)

- smiles input: "CS(=O)(=O)[O-].FC(F)(F)c1ccc([C+](c2c[nH]c3ccccc23)c2c[nH]c3ccccc23)cc1"
  measurement label: "half-life"
  result number: 6.81

----------
# method summary: Tmax in male Sprague-Dawley rat at 5 mg/kg, po measured for 36 hrs by LC-MS/MS analysis
# Format: ADME, organism-based
# applied conditions: in vivo

- smiles input: "CS(=O)(=O)[O-].FC(F)(F)c1ccc([C+](c2c[nH]c3ccccc23)c2c[nH]c3ccccc23)cc1"
  unit string: "h"
  Tmax: 5.33

----------
# method summary: Cmax in male/female Sprague-Dawley rat at 0.5 mg/kg, iv measured for 36 hrs by LC-MS/MS analysis
# Format: ADME, organism-based
# Set-up: route intravenous, dose 0.5 mg/kg, time 36 hrs
# applied conditions: both, in vivo

- smiles input: "CS(=O)(=O)[O-].Cn1cc([C+](c2ccc(C(F)(F)F)cc2)c2c[nH]c3ccccc23)c2ccccc21"
  Cmax, ng/mL: 561

----------
# method summary: AUC (0 to t) in male Sprague-Dawley rat at 5 mg/kg, po measured for 36 hrs by LC-MS/MS analysis
# Assay type: ADME, organism-based
# Design: dose 5 mg/kg, time 36 hrs
# applied conditions: in vivo

- smiles input: "CS(=O)(=O)[O-].FC(F)(F)c1ccc([C+](c2c[nH]c3ccccc23)c2c[nH]c3ccccc23)cc1"
  AUC(0-t) at 36 h, ng·h/mL: 2250

----------
# method summary: Half life in male/female Sprague-Dawley rat at 5 mg/kg, po measured for 36 hrs by LC-MS/MS analysis
# Format: ADME, organism-based
# applied conditions: both, in vivo
measurement label: half-life

- smiles input: "CS(=O)(=O)[O-].Cn1cc([C+](c2ccc(C(F)(F)F)cc2)c2c[nH]c3ccccc23)c2ccccc21"
  measurement label: "half-life"
  result: "4.49 h"

----------
# method summary: MRT(0 to t) in male Sprague-Dawley rat at 0.5 mg/kg, iv measured for 36 hrs by LC-MS/MS analysis
# Assay type: ADME, organism-based
# applied conditions: in vivo
measurement label: MRT last at 36 h (h)

- smiles input: "CS(=O)(=O)[O-].FC(F)(F)c1ccc([C+](c2c[nH]c3ccccc23)c2c[nH]c3ccccc23)cc1"
  unit string: "h"
  result number: 4.31

----------
# method summary: Oral bioavailability in female Sprague-Dawley rat at 5 mg/kg measured for 36 hrs by LC-MS/MS analysis
# Type: ADME, organism-based
# applied conditions: in vivo
measurement label: bioavailability (%)

- smiles input: "CS(=O)(=O)[O-].FC(F)(F)c1ccc([C+](c2c[nH]c3ccccc23)c2c[nH]c3ccccc23)cc1"
  result number: 22.8

----------
# method summary: Half life in male Sprague-Dawley rat at 5 mg/kg, po measured for 36 hrs by LC-MS/MS analysis
# Format: ADME, organism-based
# applied conditions: in vivo
measurement label: half-life (h)

- smiles input: "CS(=O)(=O)[O-].FC(F)(F)c1ccc([C+](c2c[nH]c3ccccc23)c2c[nH]c3ccccc23)cc1"
  measurement label: "half-life"
  unit string: "h"
  result number: 5.28

----------
# Tested on: BT-549
# method summary: Cytotoxicity against human BT-549 cells assessed as inhibition of cell growth measured after 24 hrs by MTT assay
# Format: functional, cell-based
# applied conditions: BT-549, 24 h
pIC50: −log10 of the molar value.
Consider the following compounds and their measured pIC50 readings.
measurement label: pIC50

- smiles input: "CS(=O)(=O)[O-].Cn1cc([C+](c2ccc(C(F)(F)F)cc2)c2c[nH]c3ccccc23)c2ccccc21"
  result number: 7.40
- smiles input: "CS(=O)(=O)[O-].FC(F)(F)c1ccc([C+](c2c[nH]c3ccccc23)c2c[nH]c3ccccc23)cc1"
  result number: 6.77
- smiles input: "CCn1cc([C+](c2ccc(C(F)(F)F)cc2)c2c[nH]c3ccccc23)c2ccccc21"
  result number: 7.30
- smiles input: "FC(F)(F)c1cccc([C+](c2c[nH]c3ccccc23)c2c[nH]c3ccccc23)c1.[Cl-]"
  result number: 7.15
- smiles input: "FC(F)(F)c1ccc([C+](c2c[nH]c3ccccc23)c2c[nH]c3ccccc23)cn1"
  result number: 7.30
- smiles input: "CCCn1cc([C+](c2ccc(C(F)(F)F)cc2)c2c[nH]c3ccccc23)c2ccccc21"
  result number: 7.00

----------
# method summary: AUC (0 to t) in female Sprague-Dawley rat at 5 mg/kg, po measured for 36 hrs by LC-MS/MS analysis
# Type: ADME, organism-based
# Design: dose 5 mg/kg, time 36 hrs
# applied conditions: in vivo

- smiles input: "CS(=O)(=O)[O-].FC(F)(F)c1ccc([C+](c2c[nH]c3ccccc23)c2c[nH]c3ccccc23)cc1"
  AUC(0-t) at 36 h (ng·h/mL): 3950

----------
# method summary: Tmax in female Sprague-Dawley rat at 5 mg/kg, po measured for 36 hrs by LC-MS/MS analysis
# Format: ADME, organism-based
# applied conditions: in vivo

- smiles input: "CS(=O)(=O)[O-].FC(F)(F)c1ccc([C+](c2c[nH]c3ccccc23)c2c[nH]c3ccccc23)cc1"
  unit string: "h"
  Tmax: 5.33

----------
# Tested on: SW-620
# method summary: Cytotoxicity against human SW-620 cells assessed as inhibition of cell growth measured after 24 hrs by MTT assay
# Format: functional, cell-based
# applied conditions: SW-620, 24 h

- smiles input: "FC(F)(F)c1ccc([C+](c2c[nH]c3ccccc23)c2c[nH]c3ccccc23)cn1"
  unit string: "µM"
  IC50: 0.14
- smiles input: "CCn1cc([C+](c2ccc(C(F)(F)F)cc2)c2c[nH]c3ccccc23)c2ccccc21"
  unit string: "µM"
  IC50: 0.1
- smiles input: "CS(=O)(=O)[O-].FC(F)(F)c1ccc([C+](c2c[nH]c3ccccc23)c2c[nH]c3ccccc23)cc1"
  unit string: "µM"
  IC50: 0.18
- smiles input: "CCCn1cc([C+](c2ccc(C(F)(F)F)cc2)c2c[nH]c3ccccc23)c2ccccc21"
  unit string: "µM"
  IC50: 0.16
- smiles input: "CS(=O)(=O)[O-].Cn1cc([C+](c2ccc(C(F)(F)F)cc2)c2c[nH]c3ccccc23)c2ccccc21"
  unit string: "µM"
  IC50: 0.1
- smiles input: "FC(F)(F)c1cccc([C+](c2c[nH]c3ccccc23)c2c[nH]c3ccccc23)c1.[Cl-]"
  unit string: "µM"
  IC50: 0.13

----------
# method summary: MRT(0 to t) in female Sprague-Dawley rat at 5 mg/kg, po measured for 36 hrs by LC-MS/MS analysis
# Assay type: ADME, organism-based
# applied conditions: in vivo

- smiles input: "CS(=O)(=O)[O-].FC(F)(F)c1ccc([C+](c2c[nH]c3ccccc23)c2c[nH]c3ccccc23)cc1"
  MRT last at 36 h (h): 14.5

----------
# Tested on: HCT-116
# method summary: Cytotoxicity against human HCT-116 cells assessed as inhibition of cell growth measured after 24 hrs by MTT assay
# Assay type: functional, cell-based
# applied conditions: Homo sapiens, HCT-116, 24 h
Friendly reminder: IC50 below 300 nM is met, at or above is not met.

- smiles input: "CS(=O)(=O)[O-].FC(F)(F)c1ccc([C+](c2c[nH]c3ccccc23)c2c[nH]c3ccccc23)cc1"
  assigned class: "met"
- smiles input: "CCn1cc([C+](c2ccc(C(F)(F)F)cc2)c2c[nH]c3ccccc23)c2ccccc21"
  assigned class: "met"
- smiles input: "CCCn1cc([C+](c2ccc(C(F)(F)F)cc2)c2c[nH]c3ccccc23)c2ccccc21"
  assigned class: "not met"
- smiles input: "FC(F)(F)c1ccc([C+](c2c[nH]c3ccccc23)c2c[nH]c3ccccc23)cn1"
  assigned class: "not met"
- smiles input: "FC(F)(F)c1cccc([C+](c2c[nH]c3ccccc23)c2c[nH]c3ccccc23)c1.[Cl-]"
  assigned class: "not met"
- smiles input: "CS(=O)(=O)[O-].Cn1cc([C+](c2ccc(C(F)(F)F)cc2)c2c[nH]c3ccccc23)c2ccccc21"
  assigned class: "met"

----------
# method summary: Half life in female Sprague-Dawley rat at 0.5 mg/kg, iv measured for 36 hrs by LC-MS/MS analysis
# Assay type: ADME, organism-based
# applied conditions: in vivo

- smiles input: "CS(=O)(=O)[O-].FC(F)(F)c1ccc([C+](c2c[nH]c3ccccc23)c2c[nH]c3ccccc23)cc1"
  half-life: "5.91 h"

----------
# method summary: Half life in male Sprague-Dawley rat at 0.5 mg/kg, iv measured for 36 hrs by LC-MS/MS analysis
# Type: ADME, organism-based
# applied conditions: in vivo
measurement label: half-life (h)

- smiles input: "CS(=O)(=O)[O-].FC(F)(F)c1ccc([C+](c2c[nH]c3ccccc23)c2c[nH]c3ccccc23)cc1"
  measurement label: "half-life"
  result number: 4.05
